Target: α5β3γ2 GABAA receptors (Ltk cell membranes) (Homo sapiens, UniProt P18507+P31644)
Construct: membranes
Sequence (P31644 32-462): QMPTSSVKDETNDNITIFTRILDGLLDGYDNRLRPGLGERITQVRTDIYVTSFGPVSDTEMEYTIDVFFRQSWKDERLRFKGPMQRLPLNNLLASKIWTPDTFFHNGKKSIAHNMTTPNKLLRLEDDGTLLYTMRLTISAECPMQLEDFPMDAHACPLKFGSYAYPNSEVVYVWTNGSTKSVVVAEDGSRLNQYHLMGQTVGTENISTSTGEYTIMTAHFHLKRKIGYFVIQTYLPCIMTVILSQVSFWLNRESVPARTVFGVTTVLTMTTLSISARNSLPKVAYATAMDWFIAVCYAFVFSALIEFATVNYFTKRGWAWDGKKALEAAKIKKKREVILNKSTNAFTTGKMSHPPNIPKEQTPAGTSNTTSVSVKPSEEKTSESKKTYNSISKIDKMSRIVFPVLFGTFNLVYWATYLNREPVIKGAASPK
Sequence (P28472 26-473 partner): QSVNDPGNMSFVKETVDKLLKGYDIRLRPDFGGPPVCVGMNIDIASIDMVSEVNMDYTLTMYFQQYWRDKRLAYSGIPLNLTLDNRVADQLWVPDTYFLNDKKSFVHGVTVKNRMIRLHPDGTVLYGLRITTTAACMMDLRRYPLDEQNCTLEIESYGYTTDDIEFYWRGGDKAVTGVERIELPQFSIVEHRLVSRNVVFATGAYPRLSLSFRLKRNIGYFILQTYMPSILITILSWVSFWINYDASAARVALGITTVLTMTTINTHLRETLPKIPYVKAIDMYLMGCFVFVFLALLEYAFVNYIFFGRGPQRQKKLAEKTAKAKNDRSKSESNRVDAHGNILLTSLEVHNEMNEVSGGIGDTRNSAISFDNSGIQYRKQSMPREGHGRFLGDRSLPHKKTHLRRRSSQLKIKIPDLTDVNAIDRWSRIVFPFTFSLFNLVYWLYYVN
Sequence (P18507 40-475): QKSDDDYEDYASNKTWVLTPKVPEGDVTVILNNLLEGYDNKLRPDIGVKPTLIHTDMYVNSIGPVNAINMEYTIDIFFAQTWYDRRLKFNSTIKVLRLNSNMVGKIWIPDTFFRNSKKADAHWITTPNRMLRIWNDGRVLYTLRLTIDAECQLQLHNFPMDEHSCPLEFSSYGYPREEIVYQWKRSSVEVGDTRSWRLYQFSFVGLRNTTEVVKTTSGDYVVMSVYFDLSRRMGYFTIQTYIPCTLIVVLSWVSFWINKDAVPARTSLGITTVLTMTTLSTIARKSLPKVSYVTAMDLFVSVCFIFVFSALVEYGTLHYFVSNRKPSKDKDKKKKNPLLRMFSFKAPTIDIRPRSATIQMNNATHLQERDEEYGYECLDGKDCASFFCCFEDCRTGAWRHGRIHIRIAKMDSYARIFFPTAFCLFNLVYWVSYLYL
Assay: Binding activity of test compounds on GABAAR: inhibition of [3H]Ro15-1788 binding
Conditions: GABA α5 Binding Ki Values, inhibition of [3H]Ro15-1788 binding; reported as ranges
Experimental: Tissue culture and Membrane Preparation: The binding was performed on Ltk cells stably expressing GABAA receptors: α1β1γ2, α2β3γ2, α3β3γ2 and α5β3γ2 (provided by Merck Co., NJ, USA). Cells were seeded in 100 mm culture plates in DMEM/F12 medium containing 10% serum and antibiotics in 5% CO2 and allowed to grow for 1-2 days. […] Protein content was determined using BCA assay (Bio-Rad Labs, Reinach, Switzerland) with Bovine Serum Albumin (Sigma Aldrich, St. Louis, Mo., USA) as the standard. […]
Provide the recorded Ki for the entries that follow.

*Q* Request - read-out Ki | tested on α5β3γ2 GABAA receptors (Ltk cell membranes) (Homo sapiens, UniProt P18507+P31644) | compound C#Cc1ncn2c1Cn1c(COC)nnc1-c1cc(Cl)ccc1-2
*A* < 100 nM

*Q* What is its Ki for α5β3γ2 GABAA receptors (Ltk cell membranes) (Homo sapiens, UniProt P18507+P31644)? Entry: COc1ccc2c(c1)-n1nncc1Cc1c(C3=N[C@@H](c4ccc(C(F)(F)F)cc4)CO3)ncn1-2
*A* < 100 nM

*Q* Form field: Ki recorded for Cc1noc(-c2ncn3c2Cc2c(C)nnn2-c2ccccc2-3)n1 with α5β3γ2 GABAA receptors (Ltk cell membranes) (Homo sapiens, UniProt P18507+P31644) (enter value)
*A* < 100 nM

*Q* Recorded Ki for COc1ccc2c(c1)-n1nncc1Cc1c(C3=N[C@@H](c4ccc(F)c(C(F)(F)F)c4)CO3)ncn1-2 with α5β3γ2 GABAA receptors (Ltk cell membranes) (Homo sapiens, UniProt P18507+P31644), please?
*A* < 100 nM

*Q* Find the measured Ki: item COc1ccc2c(c1)-n1nncc1Cc1c(C#Cc3ccc(OC(F)(F)F)cc3)ncn1-2 , target or system α5β3γ2 GABAA receptors (Ltk cell membranes) (Homo sapiens, UniProt P18507+P31644).
*A* < 100 nM

*Q* Recall the recorded Ki for CCOC(=O)c1ncn2c1Cc1c(Cc3cccc(Cl)c3)nnn1-c1cc(OC)ccc1-2 with α5β3γ2 GABAA receptors (Ltk cell membranes) (Homo sapiens, UniProt P18507+P31644) and state it.
*A* < 100 nM

*Q* What Ki appears in the records for this compound with α5β3γ2 GABAA receptors (Ltk cell membranes) (Homo sapiens, UniProt P18507+P31644)? COc1ccc2c(c1)-n1nnc(Cc3cccc(Cl)c3)c1Cc1c(C#N)ncn1-2
*A* < 100 nM

*Q* Report Ki for COCc1nnc2n1Cc1c(C3=NC(C)(C)CO3)ncn1-c1ccc(Cl)cc1-2 tested on α5β3γ2 GABAA receptors (Ltk cell membranes) (Homo sapiens, UniProt P18507+P31644).
*A* 100 to 1000 nM

*Q* Notebook entry, α5β3γ2 GABAA receptors (Ltk cell membranes) (Homo sapiens, UniProt P18507+P31644) assay: Ki of COCc1nnc2n1Cc1c(C#CCc3cccc(Cl)c3)ncn1-c1ccc(Cl)cc1-2 = ?
*A* < 100 nM

*Q* Param readout = Ki; param system = α5β3γ2 GABAA receptors (Ltk cell membranes) (Homo sapiens, UniProt P18507+P31644); param query = CCOC(=O)c1ncn2c1Cc1c(COc3cccc(OC)c3)nnn1-c1cc(OC)ccc1-2 ; response: value
*A* < 100 nM

*Q* Request body: readout Ki, system α5β3γ2 GABAA receptors (Ltk cell membranes) (Homo sapiens, UniProt P18507+P31644), query COCc1nnc2n1Cc1c(-c3ncco3)ncn1-c1ccc(C(F)(F)F)cc1-2 . Return the value.
*A* < 100 nM

*Q* Recorded Ki for COCc1nnc2n1Cc1c(C3=NCCO3)ncn1-c1ccc(OC(F)(F)F)cc1-2 with α5β3γ2 GABAA receptors (Ltk cell membranes) (Homo sapiens, UniProt P18507+P31644), please?
*A* 100 to 1000 nM

*Q* Ki of CCOCc1nnc2n1Cc1c(-c3noc(C(C)C)n3)ncn1-c1ccc(F)cc1-2 on α5β3γ2 GABAA receptors (Ltk cell membranes) (Homo sapiens, UniProt P18507+P31644)?
*A* < 100 nM

*Q* Under α5β3γ2 GABAA receptors (Ltk cell membranes) (Homo sapiens, UniProt P18507+P31644): Ki value of C#Cc1ncn2c1Cc1cnnn1-c1cc(OC)ccc1-2 ?
*A* < 100 nM

*Q* API: value(readout= Ki, system= α5β3γ2 GABAA receptors (Ltk cell membranes) (Homo sapiens, UniProt P18507+P31644), query= COCc1nnc2n1Cc1c(C3=N[C@@H](CC4CCCCC4)CO3)ncn1-c1ccc(Cl)cc1-2 )
*A* 100 to 1000 nM

*Q* Write down the reported Ki of COc1ccc2c(c1)-n1nncc1Cc1c(-c3nc(C(C)C)no3)ncn1-2 , test system: α5β3γ2 GABAA receptors (Ltk cell membranes) (Homo sapiens, UniProt P18507+P31644).
*A* < 100 nM

*Q* Identify the measured Ki of Cc1cnc(-c2ncn3c2Cc2c(C)nnn2-c2ccccc2-3)nc1 for α5β3γ2 GABAA receptors (Ltk cell membranes) (Homo sapiens, UniProt P18507+P31644).
*A* 100 to 1000 nM
